system: Plasmodium berghei; experiment: Luciferase/luciferin-expressing antifolate-resistant parasites were used to infect a culture of HepG2 cells that were pre-incubated with compounds. Infected hepatocytes emit light due to the luciferase reaction. Assay results are presented as the percent inhibition of light emission compared to control. […]; assay type: functional; conditions: sporozoite, HEPG2TOX_HILL_SLOPE 9.1, HEPG2TOX_R_SQUARED 0.955, PBLUC_HILL_SLOPE 28.7, PBLUC_R_SQUARED 0.321, read-out: LUCIFERASE INFECTION ASSAY - IC50
pIC50: −log10 of the molar value.

>  <Structure Smiles>
FC(F)(F)c1cnc(N/N=C/c2cccs2)c(Cl)c1

>  <pIC50>
5.01

$$$$
